// values below are reported koff
# system-name: HRgpA-6H (Porphyromonas gingivalis) (UniProt P28784)
# protocol-description: SPR Biacore 8K, 25 C; table lists HRgpA-6H as ligand, antibody as analyte
All answers are understood in s⁻¹, so give the number only.

Please review the entries below; each comes with its answer.
- H7 (antibody, V domains shown) VH: QVQLQESGPGLVKPSETLSLTCTVSGFSLSIYSVHWIRQPPGKGLEWIGMIWGGGSSDYNSALKSRLTISKDTSKNQVSLKLSSVTAADTAVYYCARNGNFYAMDYWGQGTLVTVSS VL: EIVLTQSPGTLSLSPGERATLSCTASSSVSSSFLHWYQQKPGQAPQLWIYSTSNLASGIPDRFSGSGSGTDYTLTISRLEPEDFATYYCHQYHHSPYIYTFGGGTKLEIK: 1.07e-05
- H14 (antibody, V domains shown) VH: QVQLQESGPGLVKPSETLSLTCTVSGFSLSIYSVHWIRQPPGKGLEWLGMIWGGGSSDYNSALKSRLTISKDTSKNQVSLKLSSVTAADTAMYYCARNGNFYAMDYWGQGTLVTVSS VL: EIVLTQSPGTLSLSPGERATLSCTASSSVSSSFLHWYQQKPGQAPQLWIYSTSNLASGIPDRFSGSGSGTDYTLTISRLEPEDFAVYYCHQYHHSPYIYTFGGGTKLEIK: 4.89e-05
- H5 (antibody, V domains shown) VH: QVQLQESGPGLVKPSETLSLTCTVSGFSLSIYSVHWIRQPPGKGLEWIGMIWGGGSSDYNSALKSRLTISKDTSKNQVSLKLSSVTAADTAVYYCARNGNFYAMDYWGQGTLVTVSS VL: EIVLTQSPGTLSLSPGERATLSCTASSSVSSSFLHWYQQKPGQAPRLLIYSTSNLASGIPDRFSGSGSGTDFTLTISRLEPEDFAVYYCHQYHHSPYIYTFGGGTKLEIK: 4.5e-05
- KB001 (antibody, V domains shown) VH: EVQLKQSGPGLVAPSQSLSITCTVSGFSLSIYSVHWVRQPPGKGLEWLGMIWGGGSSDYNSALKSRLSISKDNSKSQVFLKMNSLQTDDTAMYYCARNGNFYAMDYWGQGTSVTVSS VL: QIVLTQSPAIMSASLGERVTMTCTASSSVSSSFLHWYQQKPGSSPQLWIYSTSNLASGVPARFSGSGSGTSYSLTISSMEAEDAATYYCHQYHHSPYIYTFGGGTKLEIKR: 8.62e-05

## Input Which koff is listed for H8 (antibody, V domains shown) VH: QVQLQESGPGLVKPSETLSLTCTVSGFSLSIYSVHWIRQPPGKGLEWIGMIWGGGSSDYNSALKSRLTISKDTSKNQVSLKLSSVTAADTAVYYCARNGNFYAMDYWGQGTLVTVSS VL: EIVLTQSPGTLSLSPGERATLSCTASSSVSSSFLHWYQQKPGQAPQLWIYSTSNLASGIPARFSGSGSGTDYTLTISRLEPEDFATYYCHQYHHSPYIYTFGGGTKLEIK ?
## Output 6.7e-05
